Target: Multidrug resistance-associated protein 1 (Homo sapiens)
Assay: Inhibition of MRP1 (unknown origin)
pIC50: −log10 of the molar value.
quantity: pIC50

I. N#Cc1cn(Cc2ccccc2)c2c(NCCCc3ccccc3)ncnc12
II. COc1cc(N(C)C(=O)Cc2cccc(-n3c(=O)c4c(C)onc4c4c(Cl)cccc43)c2)cc(OC)c1OC
Would you mind telling me which has the lower recorded pIC50 between I and II ? Please identify the chosen entry by its label.
I
(I: 6.10, II: 6.49)

---

Molecular target: ATP-dependent translocase ABCB1 (Homo sapiens, UniProt P08183)
Sequence (P08183 whole entry): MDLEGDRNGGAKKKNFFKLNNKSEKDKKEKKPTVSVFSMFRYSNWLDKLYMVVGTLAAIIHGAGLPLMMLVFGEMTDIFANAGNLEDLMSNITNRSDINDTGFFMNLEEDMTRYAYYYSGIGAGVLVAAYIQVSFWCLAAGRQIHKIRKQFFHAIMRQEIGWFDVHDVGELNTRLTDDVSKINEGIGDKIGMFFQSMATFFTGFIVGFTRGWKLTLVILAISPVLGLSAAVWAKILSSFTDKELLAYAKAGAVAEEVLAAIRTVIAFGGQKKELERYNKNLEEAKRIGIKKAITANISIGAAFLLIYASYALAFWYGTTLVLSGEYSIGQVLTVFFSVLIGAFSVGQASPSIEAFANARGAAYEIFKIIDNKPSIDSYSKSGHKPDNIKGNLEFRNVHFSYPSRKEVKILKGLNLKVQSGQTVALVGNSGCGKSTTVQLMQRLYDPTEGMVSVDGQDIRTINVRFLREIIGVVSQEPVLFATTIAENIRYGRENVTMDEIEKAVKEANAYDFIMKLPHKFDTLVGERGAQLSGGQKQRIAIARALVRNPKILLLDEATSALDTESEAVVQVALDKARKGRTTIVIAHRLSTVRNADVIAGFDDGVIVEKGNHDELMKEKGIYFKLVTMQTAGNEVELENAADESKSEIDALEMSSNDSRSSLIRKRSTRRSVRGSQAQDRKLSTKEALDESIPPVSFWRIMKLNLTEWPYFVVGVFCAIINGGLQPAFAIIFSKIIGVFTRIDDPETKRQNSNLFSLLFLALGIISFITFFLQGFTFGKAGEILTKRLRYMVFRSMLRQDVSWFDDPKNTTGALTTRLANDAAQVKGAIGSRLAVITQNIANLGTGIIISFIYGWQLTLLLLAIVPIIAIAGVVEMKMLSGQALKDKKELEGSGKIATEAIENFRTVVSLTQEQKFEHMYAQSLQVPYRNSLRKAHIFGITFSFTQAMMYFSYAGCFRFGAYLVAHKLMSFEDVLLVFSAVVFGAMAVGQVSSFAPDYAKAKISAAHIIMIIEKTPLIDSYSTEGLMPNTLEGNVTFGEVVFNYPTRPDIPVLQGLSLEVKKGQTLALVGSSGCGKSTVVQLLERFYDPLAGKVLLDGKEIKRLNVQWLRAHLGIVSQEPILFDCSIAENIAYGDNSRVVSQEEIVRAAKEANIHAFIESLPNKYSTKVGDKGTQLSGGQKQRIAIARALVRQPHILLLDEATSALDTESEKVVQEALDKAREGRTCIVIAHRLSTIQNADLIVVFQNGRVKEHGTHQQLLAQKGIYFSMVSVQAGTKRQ
Test: Inhibition of P-gp (unknown origin) incubated for 30 mins by calcein AM analysis
quantity: IC50 (µM)

line-notation | numeric-readout
N#Cc1c2n(c3c(N4CCN(CCc5c[nH]c6ccccc56)CC4)ncnc13)CCCCC2 | 1.71
N#Cc1c2n(c3c(N4CCN(Cc5ccc6c(c5)OCO6)CC4)ncnc13)CCCC2 | 13.9
N#Cc1c2n(c3c(N4CCN(CCc5c[nH]c6ccccc56)CC4)ncnc13)CCCC2 | 5.62

I. c1ccc(C(c2ccccc2)N2CCN(c3ncnc4c3[nH]c3ccccc34)CC2)cc1
II. N#Cc1c2n(c3c(N4CCN(CCc5ccccc5)CC4)ncnc13)CCCC2
Sorting by IC50 in descending order, would I or II appear first? Please identify the chosen entry by its label.
II
(II: 9.63 µM, I: 2.33 µM)

---

Molecular target: P-gp (ABCB1) (Homo sapiens, UniProt P08183)
Test: Inhibition of P-gp (unknown origin) expressed in dog MDCK-MDR1cells assessed as maximum inhibition at 10 uM by calcein AM accumulation assay relative to control
Assay type: cell-based
Conditions: MDCK-MDR1 cells, probe calcein AM
quantity: inhibition at 10 µM (%)

line-notation | inhibition at 10 µM [%]
c1ccc2c(CCN3CCN(c4ncnc5c4[nH]c4ccccc45)CC3)c[nH]c2c1 | 30
O=C(c1ccco1)N1CCN(c2ncnc3c2[nH]c2ccccc23)CC1 | 30
c1ccc(N2CCN(c3ncnc4c3[nH]c3ccccc34)CC2)nc1 | 30
c1ccc(CCN2CCN(c3ncnc4c3[nH]c3ccccc34)CC2)nc1 | 30
c1ccc(N2CCN(c3ncnc4c3[nH]c3ccccc34)CC2)cc1 | 30
c1ccc(C(c2ccccc2)N2CCN(c3ncnc4c3[nH]c3ccccc34)CC2)cc1 | 30
c1ccc(CN2CCN(c3ncnc4c3[nH]c3ccccc34)CC2)cc1 | 30
c1ccc2c(c1)[nH]c1c(N3CCN(Cc4ccc5c(c4)OCO5)CC3)ncnc12 | 30

---

Molecular target: ATP-dependent translocase ABCB1 (Homo sapiens, UniProt P08183)
Assay: Inhibition of P-gp (unknown origin) incubated for 30 mins by calcein AM analysis
quantity: IC50 (µM)

Previously resolved entries follow.
line-notation | study-system | quantity | numeric-readout
c1ccc2c(c1)[nH]c1c(N3CCN(Cc4ccc5c(c4)OCO5)CC3)ncnc12 | ATP-dependent translocase ABCB1 (Homo sapiens, UniProt P08183) | IC50 | 3.92
c1ccc2c(CCN3CCN(c4ncnc5c4[nH]c4ccccc45)CC3)c[nH]c2c1 | ATP-dependent translocase ABCB1 (Homo sapiens, UniProt P08183) | IC50 | 3.5
c1ccc(N2CCN(c3ncnc4c3[nH]c3ccccc34)CC2)nc1 | ATP-dependent translocase ABCB1 (Homo sapiens, UniProt P08183) | IC50 | 5
N#Cc1cn(C2CC2)c2c(N3CCN(CCc4c[nH]c5ccccc45)CC3)ncnc12 | ATP-dependent translocase ABCB1 (Homo sapiens, UniProt P08183) | IC50 | 3.85
N#Cc1cn(-c2ccccc2)c2c(N3CCN(CCc4c[nH]c5ccccc45)CC3)ncnc12 | ATP-dependent translocase ABCB1 (Homo sapiens, UniProt P08183) | IC50 | 1.28

A. COc1ccccc1-n1cc(C#N)c2ncnc(N3CCN(Cc4ccccc4)CC3)c21
B. c1ccc(CCN2CCN(c3ncnc4c3[nH]c3ccccc34)CC2)nc1
Sorting by IC50 in descending order, would A or B appear first? Please identify the chosen entry by its label.
A
(A: 19.1 µM, B: 10.7 µM)

1. N#Cc1cn(Cc2ccccc2)c2c(N3CCN(CCc4c[nH]c5ccccc45)CC3)ncnc12
2. c1ccc(CCN2CCN(c3ncnc4c3[nH]c3ccccc34)CC2)cc1
Would you mind telling me which has the lower recorded IC50 between 1 and 2 ? Please identify the chosen entry by its label.
2

1. c1ccc(CN2CCN(c3ncnc4c3[nH]c3ccccc34)CC2)cc1
2. N#Cc1c2n(c3c(N4CCN(Cc5ccc6c(c5)OCO6)CC4)ncnc13)CCCCC2
3. N#Cc1cn(CCCc2ccccc2)c2c(N3CCN(CCc4c[nH]c5ccccc45)CC3)ncnc12
Order the records so the highest IC50 appears first and the lowest last. Please write the labels in the order that was asked for.
1, 2, 3
(1: 9.49 µM, 2: 5.71 µM, 3: 1.46 µM)

P. N#Cc1cn(CCc2ccccc2)c2c(N3CCN(CCc4c[nH]c5ccccc45)CC3)ncnc12
Q. CCOc1ccc(-n2cc(C#N)c3ncnc(N4CCN(Cc5ccccc5)CC4)c32)cc1
Would you mind telling me which has the lower recorded IC50 between P and Q ? Please identify the chosen entry by its label.
P
(P: 1.64 µM, Q: 7.29 µM)

---

Molecular target: Broad substrate specificity ATP-binding cassette transporter ABCG2 (Homo sapiens)
Sequence (Q9UNQ0 whole entry): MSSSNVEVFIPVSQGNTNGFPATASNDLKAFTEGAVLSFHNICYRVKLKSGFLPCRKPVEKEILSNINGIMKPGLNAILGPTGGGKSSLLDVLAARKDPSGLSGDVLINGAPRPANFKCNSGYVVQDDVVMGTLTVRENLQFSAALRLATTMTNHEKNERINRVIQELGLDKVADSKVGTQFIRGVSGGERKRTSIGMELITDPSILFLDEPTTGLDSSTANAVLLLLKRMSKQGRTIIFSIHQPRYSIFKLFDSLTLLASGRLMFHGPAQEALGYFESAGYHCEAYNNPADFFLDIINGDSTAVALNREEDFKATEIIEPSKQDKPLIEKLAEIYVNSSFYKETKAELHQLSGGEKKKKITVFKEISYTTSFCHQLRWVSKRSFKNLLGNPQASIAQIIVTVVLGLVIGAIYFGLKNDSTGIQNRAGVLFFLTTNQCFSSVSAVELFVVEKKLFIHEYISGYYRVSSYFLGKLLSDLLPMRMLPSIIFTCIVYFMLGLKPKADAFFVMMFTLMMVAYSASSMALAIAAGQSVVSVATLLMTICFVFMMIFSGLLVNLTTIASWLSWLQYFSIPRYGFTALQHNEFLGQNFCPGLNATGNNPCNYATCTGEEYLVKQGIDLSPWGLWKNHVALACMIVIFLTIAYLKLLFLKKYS
Test: Inhibition of BCRP (unknown origin) expressed in dog MDCK-II cells using pheophorbide A as substrate preincubated for 20 mins followed by substrate addition and measured after 120 mins by flow cytometry analysis
Format: cell-based
quantity: IC50 (µM)

line-notation | IC50 [µM]
N#Cc1cn(Cc2ccccc2)c2c(N3CCN(CCc4c[nH]c5ccccc45)CC3)ncnc12 | 4.07

I. N#Cc1c2n(c3c(N4CCN(Cc5ccc6c(c5)OCO6)CC4)ncnc13)CCCCC2
II. c1ccc(CN2CCN(c3ncnc4c3[nH]c3ccccc34)CC2)cc1
Sorting by IC50 in descending order, would I or II appear first? Please identify the chosen entry by its label.
I

I. N#Cc1c2n(c3c(N4CCN(Cc5ccc6c(c5)OCO6)CC4)ncnc13)CCCC2
II. N#Cc1cn(CCCc2ccccc2)c2c(N3CCN(CCc4c[nH]c5ccccc45)CC3)ncnc12
Would you mind telling me which has the lower recorded IC50 between I and II ? Please identify the chosen entry by its label.
II
(II: 1.69 µM, I: 14.6 µM)

A. COc1ccccc1-n1cc(C#N)c2ncnc(N3CCN(Cc4ccccc4)CC3)c21
B. N#Cc1c2n(c3c(N4CCN(C(=O)c5ccco5)CC4)ncnc13)CCCCC2
Would you mind telling me which has the lower recorded IC50 between A and B ? Please identify the chosen entry by its label.
B
(B: 12.9 µM, A: 37.9 µM)

---

Molecular target: Multidrug resistance-associated protein 1 (Homo sapiens, UniProt P33527)
Sequence (P33527 whole entry): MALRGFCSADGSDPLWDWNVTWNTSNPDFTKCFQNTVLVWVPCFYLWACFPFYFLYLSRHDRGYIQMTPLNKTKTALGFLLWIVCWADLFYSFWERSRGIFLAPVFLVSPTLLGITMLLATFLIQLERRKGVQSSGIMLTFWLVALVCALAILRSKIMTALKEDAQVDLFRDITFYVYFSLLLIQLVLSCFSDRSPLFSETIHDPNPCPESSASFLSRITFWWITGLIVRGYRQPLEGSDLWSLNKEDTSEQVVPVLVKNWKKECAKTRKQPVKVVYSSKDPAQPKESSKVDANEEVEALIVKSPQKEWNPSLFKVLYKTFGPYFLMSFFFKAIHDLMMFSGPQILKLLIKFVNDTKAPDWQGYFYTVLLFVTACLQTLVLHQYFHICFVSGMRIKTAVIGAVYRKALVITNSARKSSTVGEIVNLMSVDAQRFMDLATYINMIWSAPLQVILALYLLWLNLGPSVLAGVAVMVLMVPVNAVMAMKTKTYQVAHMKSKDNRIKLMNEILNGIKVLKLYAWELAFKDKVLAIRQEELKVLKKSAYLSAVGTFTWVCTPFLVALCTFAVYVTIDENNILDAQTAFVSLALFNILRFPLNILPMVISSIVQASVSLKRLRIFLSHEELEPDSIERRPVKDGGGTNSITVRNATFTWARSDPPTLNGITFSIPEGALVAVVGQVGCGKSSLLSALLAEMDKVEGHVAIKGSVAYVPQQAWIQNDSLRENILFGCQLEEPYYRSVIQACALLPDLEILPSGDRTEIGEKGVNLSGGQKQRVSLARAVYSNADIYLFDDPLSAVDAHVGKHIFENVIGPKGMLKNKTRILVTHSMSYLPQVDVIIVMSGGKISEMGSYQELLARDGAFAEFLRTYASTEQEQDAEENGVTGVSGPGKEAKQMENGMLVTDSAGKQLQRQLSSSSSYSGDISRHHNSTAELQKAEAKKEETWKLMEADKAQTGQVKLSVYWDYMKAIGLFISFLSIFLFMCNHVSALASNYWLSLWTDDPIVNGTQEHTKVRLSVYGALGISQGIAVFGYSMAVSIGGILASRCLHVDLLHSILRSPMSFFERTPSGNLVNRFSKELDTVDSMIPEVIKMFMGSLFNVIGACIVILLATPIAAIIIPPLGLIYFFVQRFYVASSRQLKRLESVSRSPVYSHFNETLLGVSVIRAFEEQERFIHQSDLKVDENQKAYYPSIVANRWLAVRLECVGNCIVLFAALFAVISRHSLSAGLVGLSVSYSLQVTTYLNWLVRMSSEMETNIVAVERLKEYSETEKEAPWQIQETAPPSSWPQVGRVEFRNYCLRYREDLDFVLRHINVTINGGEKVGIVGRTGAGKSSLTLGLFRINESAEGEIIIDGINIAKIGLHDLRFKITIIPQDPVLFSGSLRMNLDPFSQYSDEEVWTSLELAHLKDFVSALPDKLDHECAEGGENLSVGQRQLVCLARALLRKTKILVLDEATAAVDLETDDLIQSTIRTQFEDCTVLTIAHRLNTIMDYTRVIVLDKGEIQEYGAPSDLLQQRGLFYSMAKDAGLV
Assay: Inhibition of MRP1 in human NCI-H69AR cells incubated for 180 mins in presence of daunorubicin by flow cytometry analysis
Type: cell-based
pIC50: −log10 of the molar value.
quantity: pIC50

line-notation | quantity | numeric-readout
COc1ccccc1-n1cc(C#N)c2ncnc(N3CCN(Cc4ccccc4)CC3)c21 | pIC50 | 6.49
c1ccc(C(c2ccccc2)N2CCN(c3ncnc4c3[nH]c3ccccc34)CC2)cc1 | pIC50 | 6.39
c1ccc2c(CCN3CCN(c4ncnc5c4[nH]c4ccccc45)CC3)c[nH]c2c1 | pIC50 | 6.04
O=C(c1ccco1)N1CCN(c2ncnc3c2[nH]c2ccccc23)CC1 | pIC50 | 6.77
N#Cc1cn(CCCc2ccccc2)c2c(N3CCN(CCc4c[nH]c5ccccc45)CC3)ncnc12 | pIC50 | 6.30
N#Cc1cn(C2CC2)c2c(N3CCN(CCc4c[nH]c5ccccc45)CC3)ncnc12 | pIC50 | 6.50

1. N#Cc1c2n(c3c(N4CCN(CCc5ccncc5)CC4)ncnc13)CCCC2
2. CCOc1ccc(-n2cc(C#N)c3ncnc(N4CCN(CCc5ccccc5)CC4)c32)cc1
3. N#Cc1c2n(c3c(N4CCN(Cc5ccc6c(c5)OCO6)CC4)ncnc13)CCCC2
Order the records so the highest pIC50 appears first and the lowest last. Please write the labels in the order that was asked for.
3, 1, 2

1. c1ccc2c(c1)[nH]c1c(N3CCN(Cc4ccc5c(c4)OCO5)CC3)ncnc12
2. N#Cc1cn(Cc2ccccc2)c2c(N3CCN(CCc4c[nH]c5ccccc45)CC3)ncnc12
3. N#Cc1cn(CCc2ccccc2)c2c(N3CCN(Cc4ccc5c(c4)OCO5)CC3)ncnc12
Order the records so the highest pIC50 appears first and the lowest last. Please write the labels in the order that was asked for.
2, 1, 3

A. COc1ccccc1-n1cc(C#N)c2ncnc(N3CCN(CCc4ccccc4)CC3)c21
B. N#Cc1c2n(c3c(N4CCN(C(=O)c5ccco5)CC4)ncnc13)CCCCC2
Sorting by pIC50 in descending order, would A or B appear first? Please identify the chosen entry by its label.
A

P. N#Cc1c2n(c3c(NCCc4c[nH]c5ccccc45)ncnc13)CCCC2
Q. c1ccc(CCN2CCN(c3ncnc4c3[nH]c3ccccc34)CC2)cc1
Sorting by pIC50 in descending order, would P or Q appear first? Please identify the chosen entry by its label.
Q
(Q: 6.39, P: 6.02)

Hello, the source for this data is ChEMBL document CHEMBL5260824, in case you need it.
